- ASSAY SYSTEM: T1, purified recombinant MHC II protein, allele DRB1*1101 (human)
- T1 construct: bought from Benaroya Research Institute; also called MHC-II DR molecule
- TEST DETAILS: MHC II competition binding assay
pIC50: −log10 of the molar value.
Response key: Criterion met means pIC50 >= 5; Criterion not met means pIC50 < 5.

binder="DYVEAGQIIGWSGSTGY (synthetic mutated peptide of the lysostaphin catalytic domain; also called K95E) [cluster 4 peptide with Lys95Glu]" assigned_class="Criterion met"
binder="DYVKAGQQIGWSGSTGY (synthetic mutated peptide of the lysostaphin catalytic domain; also called I99Q) [cluster 4 peptide with Ile99Gln]" assigned_class="Criterion not met"
binder="DHVEAGQIIGWSGSTGY (synthetic mutated peptide of the lysostaphin catalytic domain; also called 93_95) [cluster 4 peptide with Tyr93His/Lys95Glu]" assigned_class="Criterion not met"

Task: Check if pIC50 >= 5 (inclusive). Item: DYVEAGQQIGWSGSTGY (synthetic mutated peptide of the lysostaphin catalytic domain; also called 95-99) [cluster 4 peptide with Lys95Glu/Ile99Gln]
Output: Criterion not met

Task: Check if pIC50 >= 5 (inclusive). Item: DYVKAGQIIGWSGSTGY [cluster 4 wild-type (C4WT) epitope peptide]
Output: Criterion met
